Source of measurements: PubChem BioAssay AID1851

system: Cytochrome P450 2C19 (Homo sapiens)
protocolDescription: Cytochrome panel assay with activity outcomes
conditionContext: recombinant CYP, pro-luciferin dealkylation, luminescence, p450-cyp2c19; series mostly up to 57.1 µM
Out of some 16,000 compounds screened, about 5,800 (36%) were called active. About 23% were inconclusive and are not listed. The call rests on the fitted dose curve; in most records, active means well fitted curve in the direction sought with a large enough effect; inconclusive means small, poorly fitted or top-dose-only effect, or effect the other way; inactive means no such curve, though single readings can be large or run the other way. The list shows a part of the results.
Outcome codes: Y for active, N for inactive

INSERT INTO results (molecule, assignedlabel) VALUES
  ('COCCNc1nc(-c2ccccc2C)nc2ccccc12', 'N'),
  ('O=C(O)/C(=C/c1c(C(=O)O)[nH]c2cc(Cl)cc(Cl)c12)c1ccccc1', 'N'),
  ('COc1ccccc1CNS(=O)(=O)c1ccc2[nH]cc(C(=O)O)c(=O)c2c1', 'N'),
  ('COc1cnc(SCc2ccc(Cl)cc2)nc1Cl', 'Y'),
  ('CC(=O)NCCc1c(Cc2ccccc2)[nH]c2ccccc12', 'Y'),
  ('CN(C)CC/C=C1\c2ccccc2CSc2ccccc21', 'N'),
  ('COCCNc1nc(SCc2ccccc2)nc2sc3c(c12)CCC3', 'Y'),
  ('CCC(=O)NC(NCC1CCCO1)C(Cl)(Cl)Cl (configuration not stated)', 'N'),
  ('CCOc1ccc(/C=C/C2=Cc3c(sc(NC(=O)CSc4n[nH]c(N)n4)c3C#N)C(C)(C)C2)cc1', 'Y'),
  ('O=c1[nH]c(=O)n(Cc2ccco2)c2c1C(C(F)(F)F)(C(F)(F)F)N=C(CCC1CCCCC1)N2', 'N'),
  ('O=C(NCCCCc1ccccc1)C1CC(c2ccccc2[N+](=O)[O-])=NO1 (configuration not stated)', 'Y'),
  ('N#CC1=C(N)OC2=C(CC/C2=C\c2ccccc2)C1c1ccccc1 (configuration not stated)', 'Y'),
  ('CC(=O)NCCc1ccc(O)c(O)c1', 'N'),
  ('COc1cccc(NS(=O)(=O)c2ccc3[nH]cc(C(=O)NCCN4CCOCC4)c(=O)c3c2)c1', 'Y'),
  ('CC(=O)c1c(C(C)=O)c(C)n(NC(=O)c2ccccc2Cl)c1C', 'N'),
  ('Cc1ccc(/C=C/C2=Cc3c(sc(NC(=O)CSc4n[nH]c(N)n4)c3C#N)C(C)(C)C2)o1', 'Y'),
  ('CC(=O)c1c(C(C)=O)c(C)n(NC(=O)c2ccncc2)c1C', 'Y'),
  ('CN=C(NC#N)Nc1ccc(C2=NNC(=O)C[C@@H]2C)cc1', 'N'),
  ('CC(CO)Nc1nc(SCc2ccccc2)nc2sc3c(c12)CCC3 (configuration not stated)', 'Y'),
  ('C[C@@H](C(=O)O)[C@@H]1C[C@@]1(C)[C@@H](NC(=O)OCc1ccccc1)c1ccccc1', 'N'),
  ('COc1ccc2[nH]c(-c3ccccc3)c(CCNC(C)=O)c2c1', 'Y'),
  ('C[C@@H](C(=O)O)[C@H]1C[C@]1(C)[C@H](NC(=O)OCc1ccccc1)c1ccccc1', 'Y');
